meta.source: patent EP2914280B1

This section presents compounds with their documented EC50 values.
Target: hSSTR2 (Homo sapiens)
Construct: host or cells: 'Cells expressing hSSTR2'
Sequence (P30874 whole entry): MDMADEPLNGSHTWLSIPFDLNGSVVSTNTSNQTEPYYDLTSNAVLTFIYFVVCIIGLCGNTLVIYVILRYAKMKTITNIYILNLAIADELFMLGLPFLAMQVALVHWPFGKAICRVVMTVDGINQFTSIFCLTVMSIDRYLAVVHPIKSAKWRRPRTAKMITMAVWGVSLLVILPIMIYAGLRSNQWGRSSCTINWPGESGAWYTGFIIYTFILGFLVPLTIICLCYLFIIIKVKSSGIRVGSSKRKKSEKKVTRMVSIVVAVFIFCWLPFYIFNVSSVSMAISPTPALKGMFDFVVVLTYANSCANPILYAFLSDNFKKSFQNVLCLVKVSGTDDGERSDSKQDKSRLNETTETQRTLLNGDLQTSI
Assay: Intracellular calcium mobilization assay (FLIPR Calcium 4), hSSTR2;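 also: agonist activity measured in cells expressing hSSTR2, seeded in 384-well plates, loaded with Calcium 4 dye, read-out as rise in intracellular calcium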
Assay type: cell-based
Bridge positions count the residues as written; N and C are the ends. Square brackets hold non-standard residues; d marks the D form. Peptide text beside a SMILES is read from it. * marks the point of attachment. X2 = CN1C[C@H](CSCC(=O)*)C[C@@H]2c3cccc4[nH]cc(c34)C[C@H]21; 4Pal = N[C@@H](Cc1ccncc1)C(=O)O
// units = nM; emit number, no label

compound="C[C@@H](O)[C@@H]1NC(=O)[C@H](CCCCN)NC(=O)[C@@H](Cc2c[nH]c3ccccc23)NC(=O)[C@H](Cc2ccncc2)NC(=O)[C@H](Cc2ccccc2)NC(=O)[C@H](CCCNC(=N)N)NC(=O)[C@H](NC(=O)CSC[C@@H]2C[C@@H]3c4cccc5[nH]cc(c45)C[C@H]3N(C)C2)CCCCNC(=O)[C@H](Cc2ccc(O)cc2)NC1=O [Compound 25] (X2-[dK]RF[4Pal][dW]KTY; lactam 1-C)" assay_endpoint=EC50 value=3.4
compound=C[C@@H](O)[C@@H]1NC(=O)[C@H](CCCCN)NC(=O)[C@@H](Cc2c[nH]c3ccccc23)NC(=O)[C@H](Cc2ccccc2)NC(=O)[C@H](Cc2ccccc2)NC(=O)[C@H](CCCNC(=N)N)NC(=O)[C@H](NCCSC[C@@H]2C[C@@H]3c4cccc5[nH]cc(c45)C[C@H]3N(C)C2)CCCCNC(=O)[C@H](Cc2cccc(F)c2)NC1=O assay_endpoint=EC50 value=16.2
compound=CC(=O)N(CCCN(C(C)=O)[C@@H]1CCCCNC(=O)[C@H](Cc2ccc(F)cc2)NC(=O)[C@H]([C@@H](C)O)NC(=O)[C@H](CCCCN)NC(=O)[C@@H](Cc2c[nH]c3ccccc23)NC(=O)[C@H](Cc2ccccc2)NC(=O)[C@H](Cc2ccccc2)NC(=O)[C@H](CCCNC(=N)N)NC1=O)C[C@@H]1C[C@@H]2c3cccc4[nH]cc(c34)C[C@H]2N(C)C1 assay_endpoint=EC50 value=11.8
compound=C[C@@H](O)[C@@H]1NC(=O)[C@H](CCCCN)NC(=O)[C@@H](Cc2c[nH]c3ccccc23)NC(=O)[C@H](Cc2ccccc2)NC(=O)[C@H](Cc2ccccc2)NC(=O)[C@H](CCCNC(=N)N)NC(=O)[C@H](NC[C@H](Cc2ccc(O)cc2)NC(=O)CSC[C@@H]2C[C@@H]3c4cccc5[nH]cc(c45)C[C@H]3N(C)C2)CCCCNC(=O)[C@H](Cc2ccccc2)NC1=O assay_endpoint=EC50 value=13.6
compound=C[C@@H](O)[C@@H]1NC(=O)[C@H](CCCCN)NC(=O)[C@@H](Cc2c[nH]c3ccccc23)NC(=O)[C@H](Cc2ccccc2)NC(=O)[C@H](Cc2ccccc2)NC(=O)[C@H](CCCNC(=N)N)NC(=O)[C@H](NC[C@H](Cc2ccc(O)cc2)NC(=O)CSC[C@@H]2C[C@@H]3c4cccc5[nH]cc(c45)C[C@H]3N(C)C2)CCCCNC(=O)[C@H](Cc2ccc(O)cc2)NC1=O assay_endpoint=EC50 value=13.8

Shifting focus to the compound that follows.
Query block: Which EC50 value belongs to "C[C@@H](O)[C@@H]1NC(=O)[C@H](CCCCN)NC(=O)[C@@H](Cc2c[nH]c3ccccc23)NC(=O)[C@H](Cc2ccncc2)NC(=O)[C@H](Cc2ccccc2)NC(=O)[C@H](CCCNC(=N)N)NC(=O)[C@H](NCC[S@+]([O-])C[C@@H]2C[C@@H]3c4cccc5[nH]cc(c45)C[C@H]3N(C)C2)CCCCNC(=O)[C@H](Cc2ccc(O)cc2)NC1=O" ?
Result block: 2.4
